- protocol_details: Relative cell viability in HCHT screening (propidium iodide negative nuclei count)
- Format: cell-based
- test_parameters: human, HeLa; tpre 1 h with inhibitor, removal, tinc 0.5 h with 2 (10 µM); read-out: GI50, concentration causing 50% cell growth inhibition
Recorded GI50 for the following compounds

>  <compound>
CCN1C(=O)C2SSC1C(=O)N2CC(=O)O (centres unmarked)

>  <GI50>
> 20 µM

$$$$

Specify reported GI50 for the compound shown: CCN1C(=O)C2SSSSC1C(=O)N2CC(=O)O (centres unmarked)
> 20 µM

----------
- Tested on: cellular uptake of 1 in HeLa Kyoto cells
- protocol_details: cells
- Assay type: cell-based
- test_parameters: HeLa Kyoto, HeLa; tpre 23.5 h with FBS, then tco 0.5 h co-incubation of inhibitor and 1 (10 µM); read-out: IC50, inhibition of cellular uptake of 1
experimental_endpoint: IC50

Some entries whose results are on file:
>  <compound>
O=C(CN1C(=O)C2SSC1C(=O)N2CCOc1ccccc1)NCC(=O)OC[C@H]1OC(O)[C@H](O)[C@@H](O)[C@@H]1O (stereo partly shown)

>  <IC50>
> 100 µM

$$$$
>  <compound>
[O-][S+]1CC(O)C(O)CS1 (stereo not shown)

>  <IC50>
> 500 µM

$$$$
>  <compound>
O=S1(=O)C[C@H](O)[C@H](O)CS1

>  <IC50>
860 µM

$$$$
>  <compound>
O=C(O)CC[C@H](NC(=O)CCCCC1CCSS1(=O)=O)C(=O)O (stereo partly shown)

>  <IC50>
219 µM

$$$$
>  <compound>
CCN1C(=O)C2SSSSC1C(=O)N2CC(=O)O (stereo not shown)

>  <IC50>
> 50 µM

$$$$
>  <compound>
O=C(O)CNC(=O)c1ccc2c(c1)SSSSS2

>  <IC50>
> 20 µM

$$$$

Here is another compound to look at.
Specify reported IC50 for the compound shown: CCN1C(=O)C2SSC1C(=O)N2CC(=O)O (stereo not shown)
66 µM

----------
- protocol_details: Relative cell viability in HCHT screening (propidium iodide negative nuclei count)
- Assay type: cell-based
- test_parameters: human, HeLa Kyoto cells, HeLa; tpre 4 h with inhibitor, removal, tinc 0.5 h with 2 (10 µM); read-out: GI50, concentration causing 50% cell growth inhibition
Bridge positions count the residues as written; N and C are the ends. Peptide text beside a SMILES is read from it.
experimental_endpoint: GI50 at 4 h

>  <compound>
N[C@H]1CSSC[C@@H](C(=O)N[C@@H](CCC(=O)O)C(=O)O)NC(=O)CNC1=O [compound 19] (H-CGCE-OH; disulfide 1-3)

>  <experimental_endpoint>
GI50 at 4 h

>  <obs_value>
> 1 mM

$$$$

Specify reported GI50 at 4 h for the compound shown: N[C@H]1CSSC[C@@H](C(=O)NCC(=O)O)NC(=O)[C@H](CCC(=O)O)NC1=O [compound 18] (H-CECG-OH; disulfide 1-3)
> 1 mM

----------
- protocol_details: Relative cell viability in HCHT screening (propidium iodide negative nuclei count)
- Format: cell-based
- test_parameters: human, HeLa; tpre 4 h with inhibitor, removal, tinc 0.5 h with 1 (10 µM); read-out: GI50, concentration causing 50% cell growth inhibition
Recorded GI50 for the following molecules

Specify reported GI50 for the molecule shown: O=C(O)C1CSSC1 [compound 28]
> 2000 µM

Specify reported GI50 for the molecule shown: CCN1C(=O)C2SSC1C(=O)N2CC(=O)O (centres unmarked) [compound 4]
6.4 µM

Specify reported GI50 for the molecule shown: O=C(O)CN1C(=O)C2SSC1C(=O)N2CCOc1ccccc1 (centres unmarked) [compound 5]
~4.1 µM

Specify reported GI50 for the molecule shown: O=C(O)CNC(=O)c1ccc2c(c1)SSSSS2 [compound 6]
~44 µM

Specify reported GI50 for the molecule shown: O[C@@H]1CSSC[C@@H]1O [compound 29]
> 2000 µM

----------
- protocol_details: Relative cell viability in HCHT screening (propidium iodide negative nuclei count)
- Type: cell-based
- test_parameters: human, HeLa Kyoto cells, HeLa; tpre 1.5 h, then tco 0.5 h co-incubation of inhibitor and 2 (10 µM); read-out: GI50, concentration causing 50% cell growth inhibition
Bridge positions count the residues as written; N and C are the ends. Peptide text beside a SMILES is read from it.
experimental_endpoint: GI50 at 2 h

>  <compound>
N[C@H]1CSSC[C@@H](C(=O)NCC(=O)O)NC(=O)[C@H](CCC(=O)O)NC1=O [compound 18] (H-CECG-OH; disulfide 1-3)

>  <obs_value>
> 500 µM

$$$$

Specify reported GI50 at 2 h for the compound shown: N[C@H]1CSSC[C@@H](C(=O)N[C@@H](CCC(=O)O)C(=O)O)NC(=O)CNC1=O [compound 19] (H-CGCE-OH; disulfide 1-3)
> 500 µM

----------
Recorded minimal effective concentration for the following compounds
- Test system: cellular uptake of 1 in HeLa Kyoto cells
- protocol_details: cells
- Assay type: cell-based
- test_parameters: HeLa Kyoto, 2 h, HeLa; tpre 2 h with inhibitor, removal, tinc 0.5 h with 1 (10 µM); read-out: MIC, inhibition of cellular uptake of 1
# value in µM; strip the unit string

Some entries whose results are on file:
>  <compound>
O=C(O)CC[C@H](NC(=O)CN1C(=O)C2SSC1C(=O)N2CCOc1ccccc1)C(=O)O (stereo partly shown) [compound 9]

>  <target_under_test>
cellular uptake of 1 in HeLa Kyoto cells

>  <minimal effective concentration / µM>
7

$$$$
>  <compound>
O=C(CN1C(=O)C2SSC1C(=O)N2CCOc1ccccc1)NCC(=O)OC[C@H]1OC(O)[C@H](O)[C@@H](O)[C@@H]1O (stereo partly shown) [compound 7]

>  <target_under_test>
cellular uptake of 1 in HeLa Kyoto cells

>  <minimal effective concentration / µM>
0.2

$$$$

Specify reported minimal effective concentration for the compound shown: O=C(O)CNC(=O)c1ccc2c(c1)SSSSS2 [compound 6]
0.4

Specify reported minimal effective concentration for the compound shown: O=C(CN1C(=O)C2SSC1C(=O)N2CCOc1ccccc1)NCCS(=O)(=O)O (stereo not shown) [compound 8]
6

----------
- protocol_details: Relative cell viability in HCHT screening (propidium iodide negative nuclei count)
- Type: cell-based
- test_parameters: human, HeLa; tpre 2 h with inhibitor, removal, tinc 0.5 h with 1 (10 µM); read-out: GI50, concentration causing 50% cell growth inhibition
Recorded GI50 for the following molecules

Some entries whose results are on file:
>  <molecule>
O=C(O)CC[C@H](NC(=O)CN1C(=O)C2SSC1C(=O)N2CCOc1ccccc1)C(=O)O (stereo partly drawn) [compound 9]

>  <experimental_endpoint>
GI50

>  <obs_value>
> 100 µM

$$$$
>  <molecule>
O=C(O)CN1C(=O)C2SSC1C(=O)N2CCOc1ccccc1 (stereo not drawn) [compound 5]

>  <experimental_endpoint>
GI50

>  <obs_value>
~4.7 µM

$$$$
>  <molecule>
O=C(O)CNC(=O)c1ccc2c(c1)SSSSS2 [compound 6]

>  <experimental_endpoint>
GI50

>  <obs_value>
~45 µM

$$$$

Here is another molecule to look at.
Specify reported GI50 for the molecule shown: O=C(O)CC[C@H](NC(=O)CCCCC1CCSS1(=O)=O)C(=O)O (stereo partly drawn) [compound 15]
> 500 µM

----------
- protocol_details: Relative cell viability in HCHT screening (propidium iodide negative nuclei count)
- Format: cell-based
- test_parameters: human, HeLa Kyoto cells, HeLa; tpre 2 h with inhibitor, removal, tinc 0.5 h with 1 (10 µM); read-out: GI50, concentration causing 50% cell growth inhibition
Bridge positions count the residues as written; N and C are the ends. Peptide text beside a SMILES is read from it.
experimental_endpoint: GI50 at 2 h

>  <compound>
N[C@H]1CSSC[C@@H](C(=O)NCC(=O)O)NC(=O)[C@H](CCC(=O)O)NC1=O [compound 18] (H-CECG-OH; disulfide 1-3)

>  <GI50 at 2 h>
> 2 mM

$$$$

Here is another compound to look at.
Specify reported GI50 at 2 h for the compound shown: N[C@H]1CSSC[C@@H](C(=O)N[C@@H](CCC(=O)O)C(=O)O)NC(=O)CNC1=O [compound 19] (H-CGCE-OH; disulfide 1-3)
> 2 mM

----------
- protocol_details: Relative cell viability in HCHT screening (propidium iodide negative nuclei count)
- Format: cell-based
- test_parameters: human, HeLa Kyoto cells, HeLa; tpre 1 h with inhibitor, removal, tinc 0.5 h with 2 (10 µM); read-out: GI50, concentration causing 50% cell growth inhibition
Bridge positions count the residues as written; N and C are the ends. Peptide text beside a SMILES is read from it.
experimental_endpoint: GI50 at 1 h

Specify reported GI50 at 1 h for the compound shown: N[C@H]1CSSC[C@@H](C(=O)NCC(=O)O)NC(=O)[C@H](CCC(=O)O)NC1=O [compound 18] (H-CECG-OH; disulfide 1-3)
> 1000 µM

Specify reported GI50 at 1 h for the compound shown: N[C@H]1CSSC[C@@H](C(=O)N[C@@H](CCC(=O)O)C(=O)O)NC(=O)CNC1=O [compound 19] (H-CGCE-OH; disulfide 1-3)
> 1000 µM
